// provenance: paper PMC10193422

Listed here are compounds together with their documented MIC.
# System: Aspergillus fumigatus 7544
Your answer is read as µg/mL, so omit the unit and give the number.

LINE_NOTATION | MEASUREMENT_TYPE | QUANTITY_UNIT | QUANTITATIVE_RESULT
C[C@@H](c1ncncc1F)[C@](O)(Cn1cncn1)c1ccc(F)cc1F | MIC | µg/mL | 0.125

--- query ---
Summary: CC[C@@H]([C@H](C)O)n1ncn(-c2ccc(N3CCN(c4ccc(OC[C@@H]5CO[C@@](Cn6cncn6)(c6ccc(F)cc6F)C5)cc4)CC3)cc2)c1=O , Aspergillus fumigatus 7544, MIC = 0.125
